EXPERIMENTAL TARGET: human PD-L1 (Homo sapiens (Human), UniProt Q9NZQ7)
Sequence (Q9NZQ7 19-239): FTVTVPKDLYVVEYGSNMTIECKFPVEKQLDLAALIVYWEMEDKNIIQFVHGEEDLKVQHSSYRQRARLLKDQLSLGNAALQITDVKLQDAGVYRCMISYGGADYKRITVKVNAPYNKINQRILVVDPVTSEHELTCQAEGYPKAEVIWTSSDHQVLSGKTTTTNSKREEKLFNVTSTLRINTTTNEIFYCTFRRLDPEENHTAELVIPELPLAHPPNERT
METHOD: Enzyme-Linked Immunosorbent Assay (ELISA), PD-1/PD-L1 binding
RECORDED CONDITIONS: PD-1/PD-L1 ELISA, human PD-L1 coated plates, Table 1
VALUE KIND: IC50

The cases that follow already have their IC50 on record.
COc1cc(-c2cccc(-c3cccc(Nc4cccc5cncnc45)c3C)c2C)cc(F)c1CN1CC(C(=O)O)C1; 10 to 1000 nM
COc1cc(-c2cccc(-c3cccc(NC(=O)c4c[nH]c(=O)n(C)c4=O)c3C)c2C)cc(F)c1CN(C)CCO; < 10 nM
COc1cc(-c2cccc(-c3cccc(NC(=O)c4ccncn4)c3C)c2C)cc(F)c1CNCC(=O)O; 10 to 1000 nM

Enquiry: What value of measured IC50 is listed for COc1cc(-c2cccc(-c3cccc(NC(=O)c4ccccn4)c3C)c2C)cc(F)c1CN1CCOC[C@@H]1CO ?
Return: 10 to 1000 nM

Enquiry: COc1cc(-c2cccc(-c3cccc(NC(=O)c4cc(C(=O)O)[nH]n4)c3C)c2C)cc(F)c1CN , same question.
Return: 1000 to 10000 nM

Enquiry: Next up: COc1cc(-c2cccc(-c3cccc(NC(=O)c4ccncn4)c3C)c2C)cc(F)c1CN1CC(C(=O)O)C1
Return: < 10 nM

Enquiry: Another compound to look at: COc1cc(-c2cccc(-c3cccc(NC(=O)c4c[nH]c(=O)n(C)c4=O)c3C)c2C)cc(F)c1CN[C@@H]1CCCC[C@@H]1O
Return: < 10 nM

* * *

EXPERIMENTAL TARGET: human PD-L1 (Homo sapiens (Human), UniProt Q9NZQ7)
METHOD: Enzyme-Linked Immunosorbent Assay (ELISA), PD-1/PD-L1 binding
RECORDED CONDITIONS: PD-1/PD-L1 ELISA, human PD-L1 coated plates, Table 1
pIC50: −log10 of the molar value.
VALUE KIND: pIC50

Record excerpt, results attached:
COc1cc(-c2cccc(-c3cccc(NC(=O)c4c[nH]c(=O)n(C)c4=O)c3C)c2C)cc(F)c1CN1CC(N)C1; > 8.00
COc1cc(-c2cccc(-c3cccc(NC(=O)c4ccccn4)c3C)c2C)cc(F)c1CNC(CO)CO; 6.00 to 8.00
COc1cc(-c2cccc(-c3cccc(NC(=O)c4ccccn4)c3C)c2C)cc(F)c1CN1CCCC[C@H]1C(=O)O; 6.00 to 8.00
COc1cc(-c2cccc(-c3cccc(NC(=O)c4cncn(C)c4=O)c3C)c2C)cc(F)c1CN1CCC2(C1)NC(=O)NC2=O (stereo not shown); > 8.00

Enquiry: # lookup: pIC50 of COc1cc(-c2cccc(-c3cccc(NC(=O)[C@H]4COCCN4)c3C)c2C)cc(F)c1CN
Return: 6.00 to 8.00

Enquiry: What about COc1cc(-c2cccc(-c3cccc(Nc4cccc5c4C(=O)N(C)C5)c3C)c2C)cc(F)c1CN1CC(C(=O)O)C1 ?
Return: 6.00 to 8.00

Enquiry: Repeat with COc1cc(-c2cccc(-c3cccc(Nc4nccc5ccn(C)c(=O)c45)c3C)c2C)cc(F)c1CN1CC(C(=O)O)C1
Return: > 8.00

* * *

EXPERIMENTAL TARGET: human PD-L1 (Homo sapiens (Human))
METHOD: Enzyme-Linked Immunosorbent Assay (ELISA), PD-1/PD-L1 binding
RECORDED CONDITIONS: human PD-1/PD-L1 ELISA, plates coated with human PD-L1
VALUE KIND: IC50

Below, 4 compounds whose answers are already recorded.
COc1cc(-c2cccc(-c3cccc(NC(=O)c4c[nH]c(=O)n(C)c4=O)c3C)c2C)cc(F)c1CN[C@@H]1CCC(=O)NC1; < 10 nM
COc1cc(-c2cccc(-c3cccc(NC(=O)c4cn(C)c(=O)n(C)c4=O)c3C)c2C)cc(F)c1CN(C)[C@H]1CNC(=O)C1; 10 to 1000 nM
COc1cc(-c2cccc(-c3cccc(NC(=O)c4cncn(C)c4=O)c3C)c2C)cc(F)c1CN[C@H]1CNC(=O)C1; < 10 nM
COc1cc(-c2cccc(-c3cccc(NC(=O)c4cncn(C)c4=O)c3C)c2C)cc(F)c1CN(C)CCO; < 10 nM

Enquiry: What value of IC50 has been recorded for this entry: COc1cc(-c2cccc(-c3cccc(NC(=O)c4nn(C)c(=O)n(C)c4=O)c3C)c2C)cc(F)c1CN[C@H]1CCCNC1=O
Return: 10 to 1000 nM

Enquiry: Then COc1cc(-c2cccc(-c3cccc(NC(=O)c4cncn(C)c4=O)c3C)c2C)cc(F)c1CNCc1c[nH]c(=O)[nH]c1=O ?
Return: < 10 nM

Enquiry: Similarly, COc1cc(-c2cccc(-c3cccc(NC(=O)c4nn(C)c(=O)n(C)c4=O)c3C)c2C)cc(F)c1CNCCC(N)=O ?
Return: < 10 nM

* * *

EXPERIMENTAL TARGET: human PD-L1 (Homo sapiens (Human), UniProt Q9NZQ7)
METHOD: Enzyme-Linked Immunosorbent Assay (ELISA), PD-1/PD-L1 binding
RECORDED CONDITIONS: human PD-1/PD-L1 ELISA, plates coated with human PD-L1
VALUE KIND: IC50

Enquiry: Hello, I am looking for reported IC50 with human PD-L1 (Homo sapiens (Human), UniProt Q9NZQ7) for COc1cc(-c2cccc(-c3cccc(Nc4cncc5nccnc45)c3C)c2C)cc(F)c1CN[C@@H]1CCOC[C@@H]1O . Could you help?
Return: < 10 nM

* * *

EXPERIMENTAL TARGET: human PD-L1 (Homo sapiens (Human))
METHOD: Enzyme-Linked Immunosorbent Assay (ELISA), PD-1/PD-L1 binding
RECORDED CONDITIONS: human PD-1/PD-L1 ELISA, plates coated with human PD-L1
# IC50 per entry

# count of solved cases: 5
COc1cc(-c2cccc(-c3cccc(Nc4nccc5nccnc45)c3Cl)c2C)cc(F)c1CNCC(C)(C)C(N)=O; 10 to 1000 nM
COc1cc(-c2cccc(-c3cccc(NC(=O)c4cn(C)c(=O)n(C)c4=O)c3C)c2C)cc(F)c1CN[C@H]1CCC(=O)NC1; < 10 nM
COc1cc(-c2cccc(-c3cccc(NC(=O)c4c[nH]c(=O)n(C)c4=O)c3C)c2C)cc(F)c1CN[C@H]1CCNC1=O; 10 to 1000 nM
COc1cc(-c2cccc(-c3cccc(NC(=O)c4cn(C)c(=O)n(C)c4=O)c3C)c2C)cc(F)c1CNCCC1CCC(=O)N1 (stereo not shown); < 10 nM
COc1cc(-c2cccc(-c3cccc(NC(=O)c4cn(C)c(=O)n(C)c4=O)c3Cl)c2C)cc(F)c1CN[C@@H]1CCOC[C@@H]1O; < 10 nM

Enquiry: Return reported IC50; argument: COc1cc(-c2cccc(-c3cccc(NC(=O)c4c[nH]c(=O)n(C)c4=O)c3C)c2C)cc(F)c1CNCCN1CCCC1=O
Return: < 10 nM

Enquiry: Also check COc1cc(-c2cccc(-c3cccc(NC(=O)c4cn(C)c(=O)n(C)c4=O)c3Cl)c2C)cc(F)c1CN[C@H]1CCC(=O)NC1
Return: < 10 nM

Enquiry: Would you kindly repeat that for COc1cc(-c2cccc(-c3cccc(NC(=O)c4c[nH]c(=O)n(C)c4=O)c3C)c2C)cc(F)c1CN[C@@H]1CCOC[C@@H]1O ?
Return: < 10 nM

Enquiry: Cool, now COc1cc(-c2cccc(-c3cccc(NC(=O)c4cncn(C)c4=O)c3C)c2C)cc(F)c1CNC[C@@H]1CCC(=O)N1C
Return: < 10 nM

Enquiry: Would you kindly repeat that for COc1cc(-c2cccc(-c3cccc(Nc4cncc5nccnc45)c3C)c2C)cc(F)c1CN[C@@H]1CNC(=O)C1 ?
Return: < 10 nM

Enquiry: // next record COc1cc(-c2cccc(-c3cccc(NC(=O)c4cn(C)c(=O)n(C)c4=O)c3C)c2C)cc(F)c1CNCCO
Return: < 10 nM

Enquiry: Now the molecule COc1cc(-c2cccc(-c3cccc(NC(=O)c4c[nH]c(=O)n(C)c4=O)c3C)c2C)cc(F)c1CNC[C@H]1CCC(=O)N1
Return: < 10 nM

* * *

EXPERIMENTAL TARGET: human PD-L1 (Homo sapiens (Human), UniProt Q9NZQ7)
METHOD: Enzyme-Linked Immunosorbent Assay (ELISA), PD-1/PD-L1 binding
RECORDED CONDITIONS: PD-1/PD-L1 ELISA, human PD-L1 coated plates, Table 1
Quick reference: IC50 of the listed items.

Solved entries:
COc1cc(-c2cccc(-c3cccc(NC(=O)c4cncn(C)c4=O)c3C)c2C)cc(F)c1CN(C)CCC(=O)O; < 10 nM
COc1cc(-c2cccc(-c3cccc(NC(=O)c4cccn(C)c4=O)c3C)c2C)cc(F)c1CNCCC(=O)O; < 10 nM
COc1cc(-c2cccc(-c3cccc(Nc4cc5c(cn4)C(=O)NCC5)c3C)c2C)cc(F)c1CN1CC(C(=O)O)C1; 10 to 1000 nM
COc1cc(-c2cccc(-c3cccc(NC(=O)c4cccn(CC(N)=O)c4=O)c3C)c2C)cc(F)c1CN; 10 to 1000 nM
COc1cc(-c2cccc(-c3cccc(NC(=O)c4ccccn4)c3C)c2C)cc(F)c1CN1CCC(C(=O)O)CC1; 10 to 1000 nM

Enquiry: What measured IC50 goes with COc1cc(-c2cccc(-c3cccc(NC(=O)c4cncn(C)c4=O)c3C)c2C)cc(F)c1CNC1CCCC1 ?
Return: < 10 nM

Enquiry: Another compound to check: COc1cc(-c2cccc(-c3cccc(NC(=O)C4CCN(CCO)CC4)c3C)c2C)cc(F)c1CNCCO
Return: 10 to 1000 nM

// data source = patent US11266643B2
